TARGET: recombinant human KLK5 (human) (UniProt Q9Y337)
Sequence (Q9Y337 67-293): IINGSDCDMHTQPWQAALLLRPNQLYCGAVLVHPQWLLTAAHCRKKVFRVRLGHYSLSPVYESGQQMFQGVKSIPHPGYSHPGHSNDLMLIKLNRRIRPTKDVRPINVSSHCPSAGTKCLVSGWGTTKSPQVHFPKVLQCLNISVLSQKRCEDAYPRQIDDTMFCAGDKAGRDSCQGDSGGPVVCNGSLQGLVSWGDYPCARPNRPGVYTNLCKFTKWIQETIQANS
PROCEDURE SUMMARY: KLK5 direct activity assay, 5 nM KLK5, Boc-VPR-AMC
READOUT LABEL: IC50 (read off the curve)

• 10C8 (antibody, V domains shown) VH: QSVKESEGGLFKPTDNLTLTCTVSGFSLSSYGVSWVRQAPGNGLEYIGFIGSGGFAYYASWAKSRSTITRNTNLNTVTLKMTSLTAADTATYFCARDDVGGGRSLDIWGPGTVVTVSS VL: NIVMTQTPASVEVAMGGTVIIKCQASQSISTYLSWYQQKPGQPPKLLIYSASTLASGVSSRFEGSGSGTQFTLTISGVQCADAATYYCHQDYTSNNVDNTFGGGTEVVVK = 0.9 nM
• 9B6 (antibody, V domains shown) VH: QSVKESEGGLFKPTDNLTLTCTVSGFSLSNYGVTWVRQAPGNGLEYIGFIGSGGSAYYASWAKSRSTITRNTNLNTVTLKMTSLTAADTATYFCARDDVGGGKSLDIWGPGTLVTVSS VL: NIVMTQTPASVEVAVGGTVVIKCQASQNIGDYLSWYQQKPGQRPKLLIYSASTLASGVPSRFKGSGSGTQFTLTISDLECADAATYYCHQDYTSNDVENTFGGGTEVVVK = 1 to 2 nM
• 2B11 (antibody, V domains shown) VH: QSVKESEGGLFKPTDTLTLTCTVSGFSLINYGVSWVRQAPGKGLEWIGYIGSAGSTYYATWAKSRATITRNTNLNTVTLKMTSLTAADTATYFCARAAYSAGSADAEDIWGPGTLVTVSS VL: AYYMTQTPASVEAAVGGTVTIKCQASQSISNYVAWYQQKPGQPPKLLIYRASTLASGVSSRFSGSGSGTEFTLTISDLECADAATYYCHQGYSSSNVDNIFGGGTEVVVK = 1 to 2 nM
• 3-3F5 (antibody, V domains shown) VH: QSVKESEGGLFKPTDTLTLTCTVSGFSLNDYGVSWVRQAPGNGLEWIGAIGSSGVAWYANWAKGRSTITRNTNLNTVTLKMASLTAADTATYFCARDRDYGYRADDATSGMDLWGPGTLVTVSS VL: AYDMTQTPASVEAAVGGTVTIKCQASESIGNALAWYQQKPGQPPKLLIYDASDLASGVPSRFKGSGSGTQFTLTISGVECADAATYYCQQGDSHNNVDNIFGGGTEVVVK = 1 to 2 nM
• 9F2 (antibody, V domains shown) VH: QSVKESEGGLFKPTDNLTLTCTVSGFSLSSYGVSWVRQAPGNGLEYIGFIGSGGSPYYASWAKSRSTITRNTNLNTVTLKMTSLTAADTATYFCARDDVGGGKSLDIWGPGTLVTVSS VL: NIVMTQTPASVEVAVGGTVIIKCQASQSISNYLSWYHQKSGQRPRLLIYSASTLASGVPSRFKGSGSGTQFTLTISDLECADAATYYCHQDYTSNSVDNTFGGGTEVVVK = 1 to 2 nM
